- Study System: pepsin (Homo sapiens)
- Sequence (P0DJD8 63-388): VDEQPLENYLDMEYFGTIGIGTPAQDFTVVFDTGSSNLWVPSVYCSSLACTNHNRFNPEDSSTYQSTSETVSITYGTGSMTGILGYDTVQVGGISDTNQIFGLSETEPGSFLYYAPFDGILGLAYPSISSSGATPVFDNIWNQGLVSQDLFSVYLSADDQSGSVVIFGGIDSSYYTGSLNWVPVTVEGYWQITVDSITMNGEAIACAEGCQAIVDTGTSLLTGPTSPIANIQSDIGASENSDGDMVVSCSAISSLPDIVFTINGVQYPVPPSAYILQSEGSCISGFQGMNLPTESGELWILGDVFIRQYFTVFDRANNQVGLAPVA
pIC50: −log10 of the molar value.
Measured Metric: pIC50

**Query** Given the entry COCCCCn1c(C(=O)N(CC(C)C)[C@@H]2CNC[C@H](C(=O)N3CCOCC3)C2)nc2ccccc21.Cl [Compound 10] , what pIC50 was observed with pepsin (Homo sapiens)?
**Result** < 5.00
